Listed below: IC50 values for each entry.
- assayed-system: FGFR2 (Homo sapiens (Human), UniProt P21802)
- Sequence (P21802 22-821): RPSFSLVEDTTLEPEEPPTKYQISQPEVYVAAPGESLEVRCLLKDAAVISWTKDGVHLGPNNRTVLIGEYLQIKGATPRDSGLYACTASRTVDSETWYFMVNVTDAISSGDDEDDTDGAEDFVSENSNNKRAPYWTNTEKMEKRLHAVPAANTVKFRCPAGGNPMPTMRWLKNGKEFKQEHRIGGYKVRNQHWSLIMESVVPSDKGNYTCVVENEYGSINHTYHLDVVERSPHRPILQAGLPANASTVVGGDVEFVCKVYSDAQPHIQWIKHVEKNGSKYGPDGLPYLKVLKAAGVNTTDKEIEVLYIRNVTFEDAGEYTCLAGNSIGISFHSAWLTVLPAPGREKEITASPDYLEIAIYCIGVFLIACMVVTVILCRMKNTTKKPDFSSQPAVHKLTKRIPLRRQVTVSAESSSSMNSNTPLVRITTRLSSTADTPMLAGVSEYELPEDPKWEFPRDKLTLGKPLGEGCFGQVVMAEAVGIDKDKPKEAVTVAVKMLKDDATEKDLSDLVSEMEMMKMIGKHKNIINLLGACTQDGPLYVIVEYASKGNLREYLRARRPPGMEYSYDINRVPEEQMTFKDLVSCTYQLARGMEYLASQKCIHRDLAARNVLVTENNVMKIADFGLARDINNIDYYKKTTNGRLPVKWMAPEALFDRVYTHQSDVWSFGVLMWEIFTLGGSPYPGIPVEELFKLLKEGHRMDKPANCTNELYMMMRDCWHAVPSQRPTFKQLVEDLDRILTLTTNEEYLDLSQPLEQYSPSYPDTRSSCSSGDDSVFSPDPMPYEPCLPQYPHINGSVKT
- experiment-description: Biochemical FGFR2 Caliper assay

Some entries whose results are on file:
• C#Cc1cc2c(cn1)-c1c(C3=CC[C@@H](C(=O)N4CCC[C@H]4C#N)CC3)c3c(N)ncnc3n1CCC2 [Example 1444] = < 100 nM
• C=C(C)C(=O)Nc1ccc(-c2c(C3=CC[C@@H](C(=O)N4CCCC4)C[C@H]3C)c3c(N)ncnc3n2C)cc1 (single isomer, unassigned) [Example 936] = 1000 to 100000 nM
• C=C(C)C(=O)Nc1ccc(-c2c(C3=CC[C@H](C(=O)N4CC[C@H]5C[C@H]54)CC3)c3c(N)ncnc3n2C)cc1 (single isomer, unassigned) [Example 1043] = < 100 nM
• C=C(C)C(=O)Nc1cc(C)c(-c2c(-c3ccc(Oc4nccc(C)n4)cc3)c3c(N)ncnc3n2C)cc1F [Example 1066] = < 100 nM
• C#Cc1cc(C)c(-c2c(-c3ccc(Oc4nccc(C)n4)c(Cl)c3)c3c(N)ncnc3n2C)cn1 [Example 1263] = < 100 nM

Inquiry: # get_value(readout='IC50', item= C=CC(=O)Nc1cccc(-c2c(-c3ccc4c(c3)CCCN4C)c3c(N)ncnc3n2C)c1 [Example 1027] )
Reply text: 1000 to 100000 nM

Inquiry: # get_value(readout='IC50', item= C#Cc1cnc2ccc(-c3c(-c4ccc(Oc5nccc(C)n5)c(F)c4)c4c(N)ncnc4n3C)cc2n1 [Example 1384] )
Reply text: < 100 nM

Inquiry: # get_value(readout='IC50', item= C=C(C)C(=O)Nc1ccc(-c2c(C3=CC[C@@H](C(=O)N4CCCC45COC5)CC3)c3c(N)ncnc3n2C)c(F)c1 [Example 1011] )
Reply text: < 100 nM

Inquiry: # get_value(readout='IC50', item= C#Cc1ncc(-c2c(-c3ccc(C(=O)N(C)CC(C)C)cc3)c3c(N)ncnc3n2C)c(C)c1F [Example 1305] )
Reply text: < 100 nM

Inquiry: # get_value(readout='IC50', item= C=CC(=O)Nc1ccc(-c2c(-c3ccc(=O)[nH]c3)c3c(N)ncnc3n2C)cc1 [Example 1158] )
Reply text: < 100 nM

Inquiry: # get_value(readout='IC50', item= C=C1CCc2ccc(-c3c(-c4ccc(Oc5nccc(C)n5)cc4)c4c(N)ncnc4n3C)cc2C1=O [Example 1242] )
Reply text: 100 to 250 nM

---

Listed below: IC50 values for each entry.
- assayed-system: UniProt:P21802
- experiment-description: Biochemical FGFR2 Caliper assay

* C=CC(=O)Nc1ccc(-c2c(-c3ccc(Oc4nccc(C)n4)c(F)c3)c3c(N)ncnc3n2C)cc1 | < 100 nM
* C#Cc1ncc(-c2c(-c3ccc(Oc4nccc(C)n4)cn3)c3c(N)ncnc3n2C)c(C)c1F | < 100 nM
* C#Cc1cc(C)c(-c2c(C3=CC[C@H](C(=O)N4CCCC4)CC3)c3c(C)ncnc3n2C)cn1 (single isomer, unassigned) | < 100 nM
* C#Cc1cc(OC)c(-c2c(C3=CC[C@H](C(=O)N4CCC[C@H]4C)CC3)c3c(N)ncnc3n2C)cn1 | < 100 nM

Inquiry: # get_value(readout='IC50', item= C=C(C)C(=O)Nc1ccc(-c2c(-c3ccc(C(=O)N4CCCC4)cc3)c3c(N)n[nH]c(=O)c3n2C)cc1 [Example 870] )
Reply text: 1000 to 100000 nM

Inquiry: # get_value(readout='IC50', item= `C=C1C[C@H](C)N(c2ccc(-c3c(-c4ccc(Oc5nccc(C)n5)cc4)c4c(N)ncnc4n3C)cc2)C1=O` )
Reply text: < 100 nM

Inquiry: # get_value(readout='IC50', item= `C=C(C)C(=O)Nc1ccc(-c2oc3ncnc(N)c3c2-c2ccc(Oc3cccc(C)n3)cc2)cc1` )
Reply text: 1000 to 100000 nM
